Where do the numbers come from? From patent US20180339057A1.

In this section, each of the binders is paired with its reported Luciferase NNDK EC50 (pM).
# system-under-test: T1, human MIC-1 receptor (hGFRAL, GDNF family receptor alpha like), full length (human, UniProt Q6UXV0 19-394)
# T1 sequence (looked up): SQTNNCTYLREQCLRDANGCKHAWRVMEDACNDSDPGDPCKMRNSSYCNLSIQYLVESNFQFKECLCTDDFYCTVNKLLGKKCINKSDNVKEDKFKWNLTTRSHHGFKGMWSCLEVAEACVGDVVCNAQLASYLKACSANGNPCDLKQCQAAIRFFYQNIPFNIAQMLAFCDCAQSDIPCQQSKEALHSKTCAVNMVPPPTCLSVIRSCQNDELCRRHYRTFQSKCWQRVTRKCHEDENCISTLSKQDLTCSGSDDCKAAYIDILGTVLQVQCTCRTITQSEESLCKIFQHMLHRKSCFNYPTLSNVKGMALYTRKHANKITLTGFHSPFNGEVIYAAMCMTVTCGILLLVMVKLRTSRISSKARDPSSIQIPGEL
# test-details: cell-based or functional assay
# number only, unit pM dropped from output

# count of solved cases: 5
>>> val("Compound 20 (ligand, Cys-29 (residue 4 of SEQ ID NO: 288): S{Beta}-[2-[[(1S)-1-carboxy-5-[[2-[2-[2-[[2-[2-[2-[[(4S)-4-carboxy-4-[12-(4-carboxyphenoxy)dodecanoylamino]butanoyl]amino]ethoxy]ethoxy]acetyl]amino]ethoxy]ethoxy]acetyl]amino]pentyl]amino]-2-oxoethyl]Cys (protractor of Example 10.9), homodimer, two protractors per dimer) SEPCTSGSETPGTSESATPESGPGTSTEPSEGARGDHCPLGPGRCCRLHTVRASLEDLGWADWVLSPREVQVTMCIGACPSQFRAANMHAQIKTSLHRLKPDTVPAPCCVPASYNPMVLIQKTDTGVSLQTYDDLLAKDCHCI")
49
>>> val("Compound 02 (ligand, Cys-27 (residue 6 of SEQ ID NO: 291): S{Beta}-[2-[2-[[2-[2-[2-[[2-[2-[2-[[(4S)-4-carboxy-4-(17-carboxyheptadecanoylamino)butanoyl]amino]ethoxy]ethoxy]acetyl]amino]ethoxy]ethoxy]acetyl]amino]ethylamino]-2-oxoethyl]Cys, homodimer, two protractors per dimer) SEPATCGSETPGTSESATPESGPGTSTEPSEGARGDHCPLGPGRCCRLHTVRASLEDLGWADWVLSPREVQVTMCIGACPSQFRAANMHAQIKTSLHRLKPDTVPAPCCVPASYNPMVLIQKTDTGVSLQTYDDLLAKDCHCI")
123
>>> val("Compound 06 (ligand, Cys-25 (residue 8 of SEQ ID NO: 303): S{Beta}-[2-[2-[[2-[2-[2-[[2-[2-[2-[[(4S)-4-carboxy-4-(17-carboxyheptadecanoylamino)butanoyl]amino]ethoxy]ethoxy]acetyl]amino]ethoxy]ethoxy]acetyl]amino]ethylamino]-2-oxoethyl]Cys (protractor of Example 10.4), homodimer, two protractors per dimer) SEPATSGCETPGTSESATPESGPGTSTEPSEGARGDHCPLGPGRCCRLHTVRASLEDLGWADWVLSPREVQVTMCIGACPSQFRAANLHAQIKTSLHRLKPDTVPAPCCVPASYNPLVLIQKTDTGVSLQTYDDLLAKDCHCI")
81
>>> val("Compound 15 (ligand, alpha-amino group of the N-terminal Ser-32 (residue 1 of SEQ ID NO: 312): N-[4-[[[2-[2-[2-[[2-[2-[2-[[(4S)-4-carboxy-4-(17-carboxyheptadecanoylamino)butanoyl]amino]ethoxy]ethoxy]acetyl]amino]ethoxy]ethoxy]acetyl]amino]methyl]phenyl]methyl (protractor of Example 10.1), also called monoalkylated) chain 1: SEPATSGSETPGTSESATPESGPGTSTEPSEGARGDHCPLGPGRCCRLHTVRASLEDLGWADWVLSPREVQVTMCIGACPSQFRAANLHAQIKTSLHRLRPDTVPAPCCVPASYNPLVLIQRTDTGVSLQTYDDLLARDCHCI chain 2: SEPATSGSETPGTSESATPESGPGTSTEPSEGARGDHCPLGPGRCCRLHTVRASLEDLGWADWVLSPREVQVTMCIGACPSQFRAANLHAQIKTSLHRLRPDTVPAPCCVPASYNPLVLIQRTDTGVSLQTYDDLLARDCHCI")
61
>>> val("SEPATSGCETPGTSESATPESGPGTSTEPSEG-MIC-1, des-N3, M57L, M86L (Cys mutation S(-25)C) (ligand, homodimer; no protractor) SEPATSGCETPGTSESATPESGPGTSTEPSEGARGDHCPLGPGRCCRLHTVRASLEDLGWADWVLSPREVQVTMCIGACPSQFRAANLHAQIKTSLHRLKPDTVPAPCCVPASYNPLVLIQKTDTGVSLQTYDDLLAKDCHCI")
57

Q: Entry Compound 11 (ligand, Cys-29 (residue 4 of SEQ ID NO: 290): S{Beta}-[2-[2-[[2-[2-[2-[[2-[2-[2-[[(4S)-4-carboxy-4-(17-carboxyheptadecanoylamino)butanoyl]amino]ethoxy]ethoxy]acetyl]amino]ethoxy]ethoxy]acetyl]amino]ethylamino]-2-oxoethyl]Cys (protractor of Example 10.4), homodimer, two protractors per dimer) SEPCTSGSETPGTSESATPESGPGTSTEPSEGARGDHCPLGPGRCCRLHTVRASLEDLGWADWVLSPREVQVTMCIGACPSQFRAANLHAQIKTSLHRLKPDTVPAPCCVPASYNPLVLIQKTDTGVSLQTYDDLLAKDCHCI needs its Luciferase NNDK EC50 (pM) filled in; supply it.
Ans: 55

Q: Entry SEPATSGSETPGTSESATPESGPGTSTEPSEG-MIC-1-des-N3 (M57L, M86L) (ligand, homodimer; no protractor) SEPATSGSETPGTSESATPESGPGTSTEPSEGARGDHCPLGPGRCCRLHTVRASLEDLGWADWVLSPREVQVTMCIGACPSQFRAANLHAQIKTSLHRLKPDTVPAPCCVPASYNPLVLIQKTDTGVSLQTYDDLLAKDCHCI needs its Luciferase NNDK EC50 (pM) filled in; supply it.
Ans: 85

Q: Entry Macrophage Inhibitory Cytokine-1 (MIC-1), human wild type, monomer sequence SEQ ID NO:1 (ligand, covalently linked homodimer; 112 amino acid monomer = residues 197-308 of the precursor; also called wtMIC-1) ARNGDHCPLGPGRCCRLHTVRASLEDLGWADWVLSPREVQVTMCIGACPSQFRAANMHAQIKTSLHRLKPDTVPAPCCVPASYNPMVLIQKTDTGVSLQTYDDLLAKDCHCI needs its Luciferase NNDK EC50 (pM) filled in; supply it.
Ans: 59

Q: Entry Compound 16 (ligand, alpha-amino group of the N-terminal Ser-32 (residue 1 of SEQ ID NO: 312): N-[4-[[[2-[2-[2-[[2-[2-[2-[[(4S)-4-carboxy-4-(17-carboxyheptadecanoylamino)butanoyl]amino]ethoxy]ethoxy]acetyl]amino]ethoxy]ethoxy]acetyl]amino]methyl]phenyl]methyl (protractor of Example 10.1), homodimer, two protractors per dimer; also called dialkylated) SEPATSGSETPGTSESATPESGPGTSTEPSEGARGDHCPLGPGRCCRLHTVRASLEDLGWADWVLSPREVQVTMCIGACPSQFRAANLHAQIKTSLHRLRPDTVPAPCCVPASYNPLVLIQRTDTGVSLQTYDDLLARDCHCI needs its Luciferase NNDK EC50 (pM) filled in; supply it.
Ans: 63

Q: Entry Compound 17 (ligand, Cys-29 (residue 4 of SEQ ID NO: 288): S{Beta}-[2-[2-[[2-[2-[2-[[2-[2-[2-[[(4S)-4-carboxy-4-(16-sulfohexadecanoylamino)butanoyl]amino]ethoxy]ethoxy]acetyl]amino]ethoxy]ethoxy]acetyl]amino]ethylamino]-2-oxoethyl]Cys (protractor of Example 10.6), homodimer, two protractors per dimer) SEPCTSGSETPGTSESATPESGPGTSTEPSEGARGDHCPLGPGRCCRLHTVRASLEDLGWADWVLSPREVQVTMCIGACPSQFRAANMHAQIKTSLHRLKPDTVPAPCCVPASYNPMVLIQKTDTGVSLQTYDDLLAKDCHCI needs its Luciferase NNDK EC50 (pM) filled in; supply it.
Ans: 43

Q: Entry Compound 18 (ligand, Cys-29 (residue 4 of SEQ ID NO: 288): S{Beta}-[2-[[(5S)-5-carboxy-5-[[2-[2-[2-[[2-[2-[2-[4-[17-(1H-tetrazol-5-yl)heptadecanoylsulfamoyl]butanoylamino]ethoxy]ethoxy]acetyl]amino]ethoxy]ethoxy]acetyl]amino]pentyl]amino]-2-oxoethyl]Cys (protractor of Example 10.7), homodimer, two protractors per dimer) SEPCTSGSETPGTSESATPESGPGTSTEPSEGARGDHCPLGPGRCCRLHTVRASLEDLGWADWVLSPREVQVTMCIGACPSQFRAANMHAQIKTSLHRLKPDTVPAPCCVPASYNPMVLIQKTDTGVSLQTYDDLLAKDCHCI needs its Luciferase NNDK EC50 (pM) filled in; supply it.
Ans: 66

Q: Entry Compound 08 (ligand, Cys-3 (residue 30 of SEQ ID NO: 293): S{Beta}-[2-[2-[[2-[2-[2-[[2-[2-[2-[[(4S)-4-carboxy-4-(17-carboxyheptadecanoylamino)butanoyl]amino]ethoxy]ethoxy]acetyl]amino]ethoxy]ethoxy]acetyl]amino]ethylamino]-2-oxoethyl]Cys (protractor of Example 10.4), homodimer, two protractors per dimer) SEPATSGSETPGTSESATPESGPGTSTEPCEGARGDHCPLGPGRCCRLHTVRASLEDLGWADWVLSPREVQVTMCIGACPSQFRAANLHAQIKTSLHRLKPDTVPAPCCVPASYNPLVLIQKTDTGVSLQTYDDLLAKDCHCI needs its Luciferase NNDK EC50 (pM) filled in; supply it.
Ans: 139

Q: Entry SEPATSCSETPGTSESATPESGPGTSTEPSEG-MIC-1, des-N3, M57L, M86L (Cys mutation G(-26)C) (ligand, homodimer; no protractor) SEPATSCSETPGTSESATPESGPGTSTEPSEGARGDHCPLGPGRCCRLHTVRASLEDLGWADWVLSPREVQVTMCIGACPSQFRAANLHAQIKTSLHRLKPDTVPAPCCVPASYNPLVLIQKTDTGVSLQTYDDLLAKDCHCI needs its Luciferase NNDK EC50 (pM) filled in; supply it.
Ans: 35
